# System: P. berghei ookinete development
# reported conditions: primary screen at 1 μM, replicate A
Label true (1) when % inhibition, Replicate A is at or above 60%; anything below gets false (0).

{"molecular string": "CCCCc1ccc(-c2ccc3[nH]c(C)c(Br)c(=O)c3c2)cc1", "answer label": "false (0)"}
{"molecular string": "Cc1ccc(CN2CCC(C(=O)Nc3ccc(-c4cc5ccccc5[nH]4)cc3)CC2)o1", "answer label": "false (0)"}
{"molecular string": "COc1cc(-c2nc(C(C)(C)CN)[nH]c2-c2ccncc2)ccc1Br.Cl", "answer label": "true (1)"}
{"molecular string": "Cc1[nH]c(C)c([N+](=O)[O-])c(=O)c1-c1ccc(Oc2ccc(OC(F)(F)F)cc2)cc1", "answer label": "true (1)"}
{"molecular string": "Cl.Oc1cc(-c2nc(-c3ccccc3)[nH]c2-c2ccncc2)ccc1Cl", "answer label": "true (1)"}
{"molecular string": "Cl.c1ccc(CN2CCN(CCNc3c4ccccc4nc4ccccc34)CC2)cc1", "answer label": "false (0)"}
{"molecular string": "Cc1cccc2nc(-c3ccc(-c4ccc(NC(=O)NCc5cccc(F)c5)cc4)cc3)[nH]c12", "answer label": "false (0)"}

We now examine a further compound.
Request: Dear colleague, could you confirm whether COc1ccc2c(=O)c(-c3ccc(OC(F)(F)F)cc3)c(C)[nH]c2c1 has % inhibition, Replicate A at or above 60%?
Result: false (0)

---

# Test system: HepG2 cells
# experiment description: HepG2 cytotoxicity assay
# reported conditions: read-out: HepG2 cytotoxicity assay IC50; dose response confirmation
Items are presented alongside their recorded IC50.
State the value with its unit after it.

Use the examples below as a reference point.
{"compound": "Cc1[nH]c(C)c(-c2ccc(OCc3cccc(C(F)(F)F)c3)nc2)c(=O)c1Br", "system": "HepG2 cells", "IC50": "8.61 µM"}
{"compound": "COc1ccc2nc3cc(Cl)ccc3c(NCCN(C)C)c2c1", "system": "HepG2 cells", "IC50": "15.8 µM"}
{"compound": "Br.CC(CCON1C(N)=NC(N)=NC1(C)C)c1ccc(Cl)c(Cl)c1 (centres unmarked)", "system": "HepG2 cells", "IC50": "0.001 µM"}
{"compound": "Br.CC1(C)NC(N)=NC(=N)N1OCCCOc1ccccc1Cl", "system": "HepG2 cells", "IC50": "0.001 µM"}

Please look at the following compound next.
Recorded result, Cc1noc(C)c1-c1ccc2c(Nc3ccc(C(F)(F)F)cc3)c(C(N)=O)cnc2c1.Cl , IC50: 49 µM

---

Measured Is compound selective in assay? Pf GC-ATP active? values are reported for all entries that follow.
# Tested on: P. falciparum late stage (stages IV-V) gametocytes
# experiment description: P. falciparum late stage gametocyte ATP depletion assay (Pf GC-ATP)
# reported conditions: 1: YES; 0: NO; >10-fold selectivity over cytotoxicity

{"compound": "C=C(C)Cn1cc(C2CCN(CCN3CCC(CNC(=O)c4ccc(-c5ccc(C#N)cc5)cc4)CC3)CC2)c2ccccc21 [TCMDC-138854]", "system": "P. falciparum late stage (stages IV-V) gametocytes", "test result": "0 (0: NO)"}

// Is compound selective in assay? Pf GC-ATP active? lookup, compound = Cc1cccc2nc(-c3cccc(-c4cccc(CNCCN5CCNCC5)c4)c3)[nH]c12.O=C(O)C(F)(F)F [TCMDC-132873] , result: 1 (1: YES)

The compound identified as Cl.c1ccc2c(c1)cc(CNCCCN1CCN(CCCNCc3cc4ccccc4c4ccccc34)CC1)c1ccccc12 [TCMDC-137914] registered its Is compound selective in assay? Pf GC-ATP active? at 1 (1: YES)

Documented Is compound selective in assay? Pf GC-ATP active? of COc1cccc(Nc2c(C(N)=O)cnc3ccc(-c4ccc([S+](C)[O-])cc4)cc23)c1.O=C(O)C(F)(F)F (stereo not drawn) [TCMDC-135184] : 1 (1: YES)

Per the record, Cc1ccc(-n2c(C)nc3c(Nc4ccc(-c5ccncc5)cc4)ncnc32)c(C)c1 [TCMDC-136289] has Is compound selective in assay? Pf GC-ATP active? of 1 (1: YES)

Per the records, this compound ( COc1ccccc1CCNc1nc(C)cc(N[C@@H](Cc2ccccc2)C(=O)NCc2cccc(F)c2)n1.O=C(O)C(F)(F)F [TCMDC-134893] ) has Is compound selective in assay? Pf GC-ATP active? equal to 0 (0: NO)

Consider CC(C)CNCc1cccc(-c2ccc(CN(CCCN3CCN(C)CC3)C(=O)CCC3CCCC3)cc2)c1.O=C(O)C(F)(F)F [TCMDC-140558] . Its measured Is compound selective in assay? Pf GC-ATP active? is 1 (1: YES)

# Is compound selective in assay? Pf GC-ATP active? (compound: Fc1ccc2[nH]c(-c3cccc(-c4ccc(CNCCN5CCNCC5)cc4)c3)nc2c1.O=C(O)C(F)(F)F [TCMDC-132863] ) is 1 (1: YES)

---

# Test system: HepG2 cells
# experiment description: HepG2 cytotoxicity assay
# reported conditions: HepG2; this manuscript
readout type: HepG2 cytoxicity (Pb ODA, this manuscript) (µM)
Number in µM, nothing else.

Reference set (8 entries):
{"molecular string": "Cc1cc(=O)c(-c2ccc(Oc3cccc(Cl)c3)cc2)c(C)[nH]1", "readout unit": "µM", "test result": 3.72}
{"molecular string": "Cc1[nH]c(C)c(-c2ccc(CCc3ccc(C(F)(F)F)cc3)nc2)c(=O)c1Cl", "readout unit": "µM", "test result": 56.89}
{"molecular string": "COc1ccc2nccc([C@@H](O)CN3CCC(NCCOc4ccc(F)cc4Cl)CC3)c2c1.O=C(O)C(=O)O", "readout unit": "µM", "test result": 32.36}
{"molecular string": "Cl.Cl.c1ccc2c(NCCCCCCNc3c4ccccc4nc4ccccc34)c3ccccc3nc2c1", "readout unit": "µM", "test result": 8.13}
{"molecular string": "Cc1[nH]c(C)c(-c2ccc(-c3ccc(F)cc3)nc2)c(=O)c1Br", "readout unit": "µM", "test result": 33.11}
{"molecular string": "O=C(Nc1ccc(Cl)cc1)c1cc(Cl)cc2nc(C(F)(F)F)[nH]c12", "readout unit": "µM", "test result": 2.04}
{"molecular string": "Cc1ccc(C)c(CC(=O)N2CCC(n3c(C)nc4ccc(F)cc43)CC2)c1", "readout unit": "µM", "test result": 57.54}
{"molecular string": "Cc1ccc(-n2c(Sc3ncnc4sccc34)nnc2N2CCCC2)cc1", "readout unit": "µM", "test result": 74.13}

So for Cc1cc(O)c(-c2ccc(Oc3ccc(F)cc3)cc2)c(C)n1 , the logged HepG2 cytoxicity (Pb ODA, this manuscript) turned out to be 0.28

Lab book: HepG2 cytoxicity (Pb ODA, this manuscript) of Nc1nc(N)c2c(ccc3c2ccn3Cc2ccc3c(c2)OCO3)n1 noted as 0.0324

# HepG2 cytoxicity (Pb ODA, this manuscript) (molecule: Br.CCCc1cc(C)ccc1OCCCON1C(N)=NC(N)=NC1(C)C ) is 0.0017

response.value for COc1ccc2nccc([C@@H](O)CN3CCC(NC(=O)c4cc5ccccc5[nH]4)CC3)c2c1.CS(=O)(=O)O (field: HepG2 cytoxicity (Pb ODA, this manuscript)) = 50.70

For record Nc1nc(N)c2c(ccc3c2ccn3CCCC(F)(F)F)n1 the listed HepG2 cytoxicity (Pb ODA, this manuscript) is 0.37

Measured HepG2 cytoxicity (Pb ODA, this manuscript), N#Cc1ccc(Cn2ccc3c4c(N)nc(N)nc4ccc32)cc1 : 0.0017

# molecule CCCCCCCc1ccc(-c2c(C)[nH]c(C)c(Cl)c2=O)cn1 ; its HepG2 cytoxicity (Pb ODA, this manuscript) = 30.90

Sure, the documented HepG2 cytoxicity (Pb ODA, this manuscript) for COc1ccc2nccc([C@@H](O)CN3CCC(NC(=O)/C=C/c4c[nH]c5c(C)cccc45)CC3)c2c1 is 51.29

Noted for COc1ccc2nccc([C@@H](O)CN3CCC(NCc4cc5ccc(C#N)cc5[nH]4)CC3)c2c1.O=C(O)C(=O)O : its HepG2 cytoxicity (Pb ODA, this manuscript) reads 1.55

COc1ccc(Cn2ccc3c4c(N)nc(N)nc4ccc32)cc1 yielded HepG2 cytoxicity (Pb ODA, this manuscript) of 0.011

HepG2 cytoxicity (Pb ODA, this manuscript) for COc1c(F)ccc2ncc(Cl)c(CCN3CCC(NCc4ccc5c(n4)NC(=O)CS5)CC3)c12.Cl is 23.99

For record Cc1cc(F)ccc1-c1nc(NCCCNCCc2ccccc2)nc2c1ccc(=O)n2-c1c(F)cccc1F.O=C(O)C(F)(F)F the listed HepG2 cytoxicity (Pb ODA, this manuscript) is 11.48

So for Cc1[nH]c(C)c(-c2ccc(-c3ccc(C(F)(F)F)cc3C(F)(F)F)nc2)c(=O)c1Br , the logged HepG2 cytoxicity (Pb ODA, this manuscript) turned out to be 7.41

In plain terms, Cc1cccc(Nc2nc(N[C@@H]3CCCNC3)nc3cc[nH]c(=O)c23)c1.O=C(O)C(F)(F)F has a documented HepG2 cytoxicity (Pb ODA, this manuscript) of 4.57

Reported HepG2 cytoxicity (Pb ODA, this manuscript) of Cc1[nH]c(C)c(-c2ccc(-c3cc(C(F)(F)F)cc(C(F)(F)F)c3)nc2)c(=O)c1Br : 1.26

HepG2 cytoxicity (Pb ODA, this manuscript) recorded for this molecule, Cc1ccccc1Cn1ccc2c3c(N)nc(N)nc3ccc21 , is 0.00828

Lookup result for CCC(CC)n1c(C)cc2c3c(N)nc(N)nc3ccc21 ; measured HepG2 cytoxicity (Pb ODA, this manuscript): 0.0017

HepG2 cytoxicity (Pb ODA, this manuscript) recorded for this molecule, Nc1nc(N)c2c(ccc3c2ccn3Cc2ccccc2)n1 , is 0.15

Lab note: measured HepG2 cytoxicity (Pb ODA, this manuscript) of Cl.c1ccc(CN2CCN(CCNc3c4ccccc4nc4ccccc34)CC2)cc1 was 23.99

Entry under test: Cc1[nH]c(C)c(-c2ccc(-c3ccc(OC(F)(F)F)cc3)cc2)c(=O)c1Cl . Its HepG2 cytoxicity (Pb ODA, this manuscript) was 64.57
